- Test system: SGC-7901 gastric cancer cells
- protocol-summary: Growth inhibition of cancer cell lines (MTS / WST assay), SGC-7901
- Type: cell-based
- condition-notes: Homo sapiens, SGC-7901, 72 h
property-measured: GI50 (nM)

The cases that follow already have their GI50 on record.
| compound | target-desc | assay-result |
| --- | --- | --- |
| CN1C[C@@H](C(=O)Nc2ccc(Cl)cc2)[C@H](c2ccc(/C=C/C(=O)Nc3ccccc3N)cc2)C1 [Example 5-2] | SGC-7901 gastric cancer cells | 380 |
| Cc1ccc(NC(=O)C2CN(C)CC2c2ccc(/C=C/C(=O)Nc3ccccc3N)cc2)cc1 (stereo not shown) [Example 5-19] | SGC-7901 gastric cancer cells | 490 |
| CN1CC(C(=O)Nc2ccc(Br)cc2)C(c2ccc(/C=C/C(=O)Nc3ccccc3N)cc2)C1 (stereo not shown) [Example 5-20] | SGC-7901 gastric cancer cells | 500 |
| CC(C)(CO)N1CC(C(=O)Nc2ccc(Cl)cc2)C(c2ccc(/C=C/C(=O)Nc3ccccc3N)cc2)C1 (racemic) [Example 26] | SGC-7901 gastric cancer cells | 290 |
| Cc1cccc(NC(=O)C2CN(C)CC2c2ccc(/C=C/C(=O)Nc3ccccc3N)cc2)c1 (stereo not shown) [Example 5-28] | SGC-7901 gastric cancer cells | 310 |

(A) CC(C)(O)CN1CC(C(=O)Nc2ccc(Cl)cc2)C(c2ccc(/C=C/C(=O)Nc3ccccc3N)cc2)C1 (stereo not shown) [Example 31-8]
(B) CN1CC(c2ccc(/C=C/C(=O)Nc3ccccc3N)cc2)C(c2nc3cc(Cl)ccc3[nH]2)C1 (stereo not shown) [Example 11-4]
input: Please tell me which of the two, A or B , has the higher reported GI50 value. Write down the label attached to your selection.
output: A
(A: 540 nM, B: 370 nM)

###

- Test system: SGC-7901 gastric cancer cells
- protocol-summary: Growth inhibition of cancer cell lines (MTS / WST assay), SGC-7901
- Type: cell-based
- condition-notes: Homo sapiens, SGC-7901, 72 h
property-measured: GI50 (nM)

Some solved entries appear below for comparison.
| compound | u | GI50 |
| --- | --- | --- |
| CN1CC(C(=O)Nc2ccc(F)cc2)C(c2ccc(/C=C/C(=O)Nc3ccccc3N)cc2F)C1 (stereo not shown) [Example 85-4] | nM | 470 |
| Cc1cc(NC(=O)C2CN(C)CC2c2ccc(/C=C/C(=O)Nc3ccccc3N)cc2)ccc1F (stereo not shown) [Example 5-27] | nM | 280 |

(a) CC(C)N1CC(C(=O)Nc2ccc(Br)cc2)C(c2ccc(/C=C/C(=O)Nc3ccccc3N)cc2)C1 (stereo not shown) [Example 16-16]
(b) COCCN1CC(C(=O)Nc2ccc(Cl)cc2)C(c2ccc(/C=C/C(=O)Nc3ccccc3N)cc2)C1 (stereo not shown) [Example 21-15]
input: Identify the entry with the smaller GI50: a or b . Your answer should be the label attached to the chosen record.
output: a

###

- Tested on: SMMC-7721 liver cancer cells
- protocol-summary: Growth inhibition of cancer cell lines (MTS / WST assay), SMMC-7721
- Type: cell-based
- condition-notes: Homo sapiens, SMMC-7721, 72 h, read-out: SMMC GI90
property-measured: IC90 (µM)

| compound | property-measured | assay-result |
| --- | --- | --- |
| CC(C)(C)N1CC(C(=O)Nc2ccc(F)cc2)C(c2ccc(/C=C/C(=O)Nc3ccccc3N)cc2)C1 (stereo not shown) | IC90 | 1.84 |
| Cc1cc(NC(=O)C2CN(C)CC2c2ccc(/C=C/C(=O)Nc3ccccc3N)cc2)ccc1F (stereo not shown) | IC90 | 1.6 |
| Cc1ccc(NC(=O)C2CN(C)CC2c2ccc(/C=C/C(=O)Nc3ccccc3N)cc2)cc1 (stereo not shown) | IC90 | 1.75 |
| CCN1CC(C(=O)Nc2ccc(Cl)cc2)C(c2ccc(/C=C/C(=O)Nc3ccccc3N)cc2)C1 (stereo not shown) | IC90 | 2.52 |
| CC(C)N1CC(C(=O)Nc2ccc(Br)cc2)C(c2ccc(/C=C/C(=O)Nc3ccccc3N)cc2)C1 (stereo not shown) | IC90 | 1.62 |
| CN1C[C@@H](C(=O)Nc2ccc(Cl)cc2)[C@H](c2ccc(/C=C/C(=O)Nc3ccccc3N)cc2)C1 | IC90 | 1.98 |
| CC(C)N1CC(C(=O)Nc2ccc(F)cc2)C(c2ccc(/C=C/C(=O)Nc3ccccc3N)cc2)C1 (stereo not shown) | IC90 | 2.02 |

All values here come from patent US7977372B2.
